Assay: Cytotoxicity against human MCF10A cells assessed as growth inhibition measured after 72 hrs by SRB assay
Format: cell-based, MCF-10A
// values below are reported log10(GI50 at 72 h)
PARAMETER_MEASURED: log10(GI50 at 72 h) (log10 of the value in µM)

>>> result_value("N#C/C(=C\\c1ccc(OCC(O)CN2CCN(c3ccc(Cl)cc3)CC2)cc1)c1ccc(Cl)c(Cl)c1 (racemic)")
1.26
>>> result_value("N#C/C(=C\\c1ccc(OCC(O)CNC2C3CC4CC(C3)CC2C4)cc1)c1ccc(Cl)c(Cl)c1 (racemic)")
0.43
>>> result_value("N#C/C(=C\\c1ccc(OCC(O)CNc2ccc(Br)cc2)cc1)c1ccc(Cl)c(Cl)c1 (racemic)")
1.11
>>> result_value("N#C/C(=C\\c1ccc(OCC(O)CN2CCN(c3ccc(C#N)cc3)CC2)cc1)c1ccc(Cl)c(Cl)c1 (racemic)")
1.67
>>> result_value("N#C/C(=C\\c1ccc(OCC(O)CNC23CC4CC(CC(C4)C2)C3)cc1)c1ccc(Cl)c(Cl)c1 (racemic)")
0.40
>>> result_value("N#C/C(=C\\c1ccc(OCC(O)CN2CCCCCC2)cc1)c1ccc(Cl)c(Cl)c1 (racemic)")
0.49
>>> result_value("CN(C)CC(O)COc1ccc(/C=C(\\C#N)c2ccc(Cl)c(Cl)c2)cc1 (racemic)")
0.45
>>> result_value("CC(=O)N1CCN(CC(O)COc2ccc(/C=C(\\C#N)c3ccc(Cl)c(Cl)c3)cc2)CC1 (racemic)")
1.20
>>> result_value("N#C/C(=C\\c1ccc(OCC(O)CN2CCCCC2)cc1)c1ccc(Cl)c(Cl)c1 (racemic)")
0.40
>>> result_value("COc1ccc(NCC(O)COc2ccc(/C=C(\\C#N)c3ccc(Cl)c(Cl)c3)cc2)cc1 (racemic)")
1.28
>>> result_value("N#C/C(=C\\c1ccc(OCC(O)CN2CCOCC2)cc1)c1ccc(Cl)c(Cl)c1 (racemic)")
0.75
>>> result_value("N#C/C(=C\\c1ccc(OCC(O)CN2CCCC2)cc1)c1ccc(Cl)c(Cl)c1 (racemic)")
0.46

====

Tested on: HT-29
Assay: Cytotoxicity against human HT29 cells assessed as growth inhibition measured after 72 hrs by SRB assay
Assay type: functional
Classify: fulfilled when GI50 is strictly less than 3 µM; not fulfilled when GI50 is not.

>>> cat("N#C/C(=C\\c1ccc(OCC(O)CNc2ccccc2)cc1)c1ccc(Cl)c(Cl)c1 (racemic)")
"not fulfilled"
>>> cat("N#C/C(=C\\c1ccc(OCC(O)CN2CCN(c3ccc(Br)cc3)CC2)cc1)c1ccc(Cl)c(Cl)c1 (racemic)")
"not fulfilled"
>>> cat("CC(=O)c1ccc(N2CCN(CC(O)COc3ccc(/C=C(\\C#N)c4ccc(Cl)c(Cl)c4)cc3)CC2)cc1 (racemic)")
"not fulfilled"
>>> cat("CN1CCN(CC(O)COc2ccc(/C=C(\\C#N)c3ccc(Cl)c(Cl)c3)cc2)CC1 (racemic)")
"fulfilled"
>>> cat("Cc1ccc(N2CCN(CC(O)COc3ccc(/C=C(\\C#N)c4ccc(Cl)c(Cl)c4)cc3)CC2)cc1 (racemic)")
"fulfilled"
>>> cat("N#C/C(=C\\c1ccc(OCC(O)CN2CCN(c3ccc([N+](=O)[O-])cc3)CC2)cc1)c1ccc(Cl)c(Cl)c1 (racemic)")
"not fulfilled"
>>> cat("N#C/C(=C\\c1ccc(OCC(O)CNC23CC4CC(CC(C4)C2)C3)cc1)c1ccc(Cl)c(Cl)c1 (racemic)")
"fulfilled"
>>> cat("N#C/C(=C\\c1ccc(OCC(O)CN2CCN(c3ccc(Cl)cc3)CC2)cc1)c1ccc(Cl)c(Cl)c1 (racemic)")
"not fulfilled"
>>> cat("N#C/C(=C\\c1ccc(OCC(O)CN2CCCCC2)cc1)c1ccc(Cl)c(Cl)c1 (racemic)")
"fulfilled"
>>> cat("N#C/C(=C\\c1ccc(OCC(O)CN2CCOCC2)cc1)c1ccc(Cl)c(Cl)c1 (racemic)")
"not fulfilled"
